TARGET UNDER TEST: T1, human melanocortin receptor subtype 1 (hMC1-R) (human, UniProt Q01726 1-317)
T1 construct: whole, on cells; membranes of CHO-K1 cells
T1 sequence (Q01726 whole entry): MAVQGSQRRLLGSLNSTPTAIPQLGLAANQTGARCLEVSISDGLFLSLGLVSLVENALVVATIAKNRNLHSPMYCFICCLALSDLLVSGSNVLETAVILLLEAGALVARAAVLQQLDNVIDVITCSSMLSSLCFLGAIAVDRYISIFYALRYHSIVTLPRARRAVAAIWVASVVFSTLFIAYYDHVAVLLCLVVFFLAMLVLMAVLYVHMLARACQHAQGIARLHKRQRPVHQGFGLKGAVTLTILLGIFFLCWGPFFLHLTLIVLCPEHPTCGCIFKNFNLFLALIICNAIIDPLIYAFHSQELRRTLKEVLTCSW
PROCEDURE TEXT: [125I]-NDP-α-MSH competition, membranes
Bridge positions count the residues as written; N and C are the ends. Square brackets hold non-standard residues; d marks the D form. Ends that are not written are not given here. 2Nal = N[C@@H](Cc1ccc2ccccc2c1)C(=O)O; d2Nal = N[C@H](Cc1ccc2ccccc2c1)C(=O)O; Bta = N[C@@H](Cc1csc2ccccc12)C(=O)O; βAla = NCCC(=O)O

BINDER	Ki [nM]
Ac-CEH[d2Nal]R[Bta]ACPPKD[βAla]RRRRRRQRRR-NH2 (disulfide 1-8)	6.77
Ac-CEH[d2Nal]R[Bta]ACPPKD[βAla]RRKRRQRRR-NH2 (disulfide 1-8)	3
DH[d2Nal]RWK-NH2 (lactam 1-6; also: hydantoin ring: N-terminal N of Asp1 and backbone N of His2 bridged by one C(O), bridge at N via C(O), other end not in the chain) [c[Hydantoin(C(O)-(Asp-His))-D-2-Nal-Arg-Trp-Lys]-NH2]	200
Ac-CEH[d2Nal]R[2Nal]ACPPKD[βAla]RRRRRQRRR-NH2 (disulfide 1-8) [Ac-c(Cys-Glu-His-D-2-Nal-Arg-2-Nal-Ala-Cys)-Pro-Pro-Lys-Asp-β-[…]NH2]	2.48
Ac-CEH[d2Nal]R[Bta]ACPPKD[βAla]YGRKRRRQRRR-NH2 (disulfide 1-8)	2.14
